molecular target: PGL-3 condensates (Caenorhabditis elegans); experiment: Fluorescence imaging of dye partitioning in PGL-3 condensates (I-in, I-out); assay type: physicochemical; conditions: I-in:I-out; Day 1; 10 μM dye
Value Type: Ratio of intensity inside:outside PGL-3 Condensates Day 1

[[record]]
compound = "CCN(CC)c1ccc2c(-c3ccccc3C(=O)O)c3ccc(=[N+](CC)CC)cc-3oc2c1 [Dye 16, Rhodamine B]"
endpoint_value = 1.4

[[record]]
compound = "CC(=O)Oc1ccc2c(c1)Oc1cc(OC(C)=O)ccc1C21OC(=O)c2ccccc21 [Dye 9, Fluorescein diacetate]"
endpoint_value = 2.2

[[record]]
compound = "CC(=O)c1cc2cc3c4c(c2oc1=O)CCCN4CCC3 [Dye 4, Coumarin 334]"
endpoint_value = 1.4

[[record]]
compound = "O=C1OC2(c3ccc(O)cc3Oc3cc(O)ccc32)c2ccccc21 [Dye 6, Fluorescein]"
endpoint_value = 1.0


---

target: UniProt:G5EBV6; experiment: Fluorescence imaging of dye partitioning in PGL-3 condensates (I-in, I-out); format: physicochemical; conditions: outside PGL-3 condensate; background corrected; one day of experiments
Value Type: Intensity Outside (Dye-No Dye)

[[record]]
molecule = "O=C(CCCC[C@@H]1SCC2NC(=O)NC21)NCCNC(=O)c1ccc(-c2c3ccc(=O)cc-3oc3ccc(O)cc23)c(C(=O)O)c1 (stereo partly drawn)"
endpoint_value = 2732.2

[[record]]
molecule = "N#CC1=c2cc3c4c(c2Oc2c1cc1c5c2CCCN5CCC1)CCC[N+]=4CCC3"
endpoint_value = 178.7

[[record]]
molecule = "CCN(CC)c1ccc2c(-c3ccccc3C(=O)O)c3ccc(=[N+](CC)CC)cc-3oc2c1"
endpoint_value = 3987.2


---

Target: PGL-3 condensates (Caenorhabditis elegans)
Sequence (G5EBV6 1-693): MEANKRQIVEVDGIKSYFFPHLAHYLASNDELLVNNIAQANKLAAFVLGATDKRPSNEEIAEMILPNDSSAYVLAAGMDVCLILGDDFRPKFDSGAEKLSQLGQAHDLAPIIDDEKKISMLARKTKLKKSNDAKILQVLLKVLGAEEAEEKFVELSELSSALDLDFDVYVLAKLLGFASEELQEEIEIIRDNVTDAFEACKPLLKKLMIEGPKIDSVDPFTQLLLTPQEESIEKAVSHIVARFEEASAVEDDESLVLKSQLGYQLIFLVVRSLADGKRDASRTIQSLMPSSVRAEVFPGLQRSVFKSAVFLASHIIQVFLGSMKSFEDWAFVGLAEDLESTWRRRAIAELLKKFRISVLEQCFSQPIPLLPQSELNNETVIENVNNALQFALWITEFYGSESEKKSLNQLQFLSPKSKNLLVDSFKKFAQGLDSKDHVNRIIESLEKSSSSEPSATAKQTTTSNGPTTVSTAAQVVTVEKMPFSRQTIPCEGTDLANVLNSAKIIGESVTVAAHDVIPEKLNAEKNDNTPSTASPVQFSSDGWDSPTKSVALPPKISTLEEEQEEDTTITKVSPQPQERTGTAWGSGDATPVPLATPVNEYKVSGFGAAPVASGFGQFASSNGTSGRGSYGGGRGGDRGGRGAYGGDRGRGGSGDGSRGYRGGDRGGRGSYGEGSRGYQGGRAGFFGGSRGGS
Assay: Fluorescence imaging of dye partitioning in PGL-3 condensates (I-in, I-out)
Format: physicochemical
Settings: inside PGL-3 condensate; 10 μM dye, 5 μM protein; image 3; one day of experiments
Where a name gives a salt, the structure may show the parent alone.
Value Type: Intensity Inside with Dye 3

[[record]]
compound = "O=C(CCCC[C@@H]1SCC2NC(=O)NC21)NCCNC(=O)c1ccc(-c2c3ccc(=O)cc-3oc3ccc(O)cc23)c(C(=O)O)c1 (stereo partly drawn)"
tested_target = "PGL-3 condensates (Caenorhabditis elegans)"
value_type = "Intensity Inside with Dye 3"
endpoint_value = 3035.4

[[record]]
compound = "CC/N=c1/cc2oc3cc(NCC)c(C)cc3c(-c3ccccc3C(=O)NCCOCCOCCN)c-2cc1C.O=C(O)C(F)(F)F"
tested_target = "PGL-3 condensates (Caenorhabditis elegans)"
value_type = "Intensity Inside with Dye 3"
endpoint_value = 5802.8

[[record]]
compound = "O=C([O-])c1ccccc1C1=c2cc3c4c(c2Oc2c1cc1c5c2CCCN5CCC1)CCC[N+]=4CCC3 [Dye 17, Rhodamine 101 inner salt]"
tested_target = "PGL-3 condensates (Caenorhabditis elegans)"
value_type = "Intensity Inside with Dye 3"
endpoint_value = 12561.8


---

// Intensity Inside Dye-No Dye lookup, one value per entry
target: FUS-SNAP condensates (Homo sapiens, UniProt P35637); assay: Fluorescence imaging of dye partitioning in FUS-SNAP condensates (I-in, I-out); assay type: physicochemical; conditions: inside FUS-SNAP condensate; background corrected; one day of experiments
Sequence (P35637 whole entry): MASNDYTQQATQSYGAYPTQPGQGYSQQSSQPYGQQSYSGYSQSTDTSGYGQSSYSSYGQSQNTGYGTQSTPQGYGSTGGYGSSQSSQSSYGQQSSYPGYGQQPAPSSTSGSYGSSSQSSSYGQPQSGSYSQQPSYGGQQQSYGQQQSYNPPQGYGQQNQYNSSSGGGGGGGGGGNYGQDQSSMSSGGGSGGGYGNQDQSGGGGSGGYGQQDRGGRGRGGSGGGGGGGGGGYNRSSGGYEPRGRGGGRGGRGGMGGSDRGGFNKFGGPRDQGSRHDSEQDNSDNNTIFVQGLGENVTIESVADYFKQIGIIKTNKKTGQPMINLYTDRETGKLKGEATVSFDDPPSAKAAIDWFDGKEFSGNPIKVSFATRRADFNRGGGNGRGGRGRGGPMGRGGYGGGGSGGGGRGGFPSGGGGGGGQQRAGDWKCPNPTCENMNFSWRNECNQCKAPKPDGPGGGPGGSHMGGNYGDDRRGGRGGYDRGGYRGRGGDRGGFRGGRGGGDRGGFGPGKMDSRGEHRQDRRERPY
Counter-ions that a name gives are not always drawn.
Value Type: Intensity Inside Dye-No Dye

[[record]]
compound = "O=C([O-])c1ccccc1C1=c2cc3c4c(c2Oc2c1cc1c5c2CCCN5CCC1)CCC[N+]=4CCC3 [Dye 17, Rhodamine 101 inner salt]"
endpoint_value = 4857.1

[[record]]
compound = "CC(=O)c1cc2cc3c4c(c2oc1=O)CCCN4CCC3 [Dye 4, Coumarin 334]"
endpoint_value = 10353.6

[[record]]
compound = "CCN(CC)c1ccc2c(-c3ccccc3C(=O)O)c3ccc(=[N+](CC)CC)cc-3oc2c1 [Dye 16, Rhodamine B]"
endpoint_value = 1941.7


---

As shown below, each of these compounds has a reported Ratio of FUS-SNAP:PGL-3 value.
system: FUS-SNAP condensates versus PGL-3 condensates; experiment: Condensate preference: ratio of FUS-SNAP I-in:I-out to PGL-3 I-in:I-out; format: physicochemical; details: average FUS-SNAP I-in:I-out divided by average PGL-3 I-in:I-out
Value Type: Ratio of FUS-SNAP:PGL-3

[[record]]
compound = "CCN(CC)c1ccc2c(-c3ccccc3C(=O)O)c3ccc(=[N+](CC)CC)cc-3oc2c1 [Dye 16, Rhodamine B]"
value_type = "Ratio of FUS-SNAP:PGL-3"
endpoint_value = 3.0

[[record]]
compound = "O=C(CCCC[C@@H]1SCC2NC(=O)NC21)NCCNC(=O)c1ccc(-c2c3ccc(=O)cc-3oc3ccc(O)cc23)c(C(=O)O)c1 (stereo partly drawn) [Dye 13, Biotin-4-Fluorescein]"
value_type = "Ratio of FUS-SNAP:PGL-3"
endpoint_value = 2.0

[[record]]
compound = "COC(=O)c1ccccc1-c1c2ccc(=N)cc-2oc2cc(N)ccc12.Cl [Dye 14, Rhodamine 123]"
value_type = "Ratio of FUS-SNAP:PGL-3"
endpoint_value = 1.2

[[record]]
compound = "N=C(N)c1ccc(-c2cc3ccc(C(=N)N)cc3[nH]2)cc1 [Dye 1, DAPI]"
value_type = "Ratio of FUS-SNAP:PGL-3"
endpoint_value = 1.5

[[record]]
compound = "O=C(O)c1cc2cc3c4c(c2oc1=O)CCCN4CCC3 [Dye 3, Coumarin 343]"
value_type = "Ratio of FUS-SNAP:PGL-3"
endpoint_value = 2.0

[[record]]
compound = "O=C1OC2(c3ccc(O)cc3Oc3cc(O)ccc32)c2ccccc21 [Dye 6, Fluorescein]"
value_type = "Ratio of FUS-SNAP:PGL-3"
endpoint_value = 1.5


---

biological target: FUS-SNAP condensates (Homo sapiens, UniProt P35637); assay: Fluorescence imaging of dye partitioning in FUS-SNAP condensates (I-in, I-out); type: physicochemical; conditions: outside FUS-SNAP condensate; 10 μM dye, 5 μM protein; image 1; one day of experiments
Intensity Outside with Dye 1 vs 1000: at or above is yes, below is no.

[[record]]
compound = "CC(=O)c1cc2cc3c4c(c2oc1=O)CCCN4CCC3"
tested_target = "FUS-SNAP condensates (Homo sapiens, UniProt P35637)"
category = "yes"

[[record]]
compound = "O=C1OC2(c3ccc(O)cc3Oc3cc(O)ccc32)c2ccccc21"
tested_target = "FUS-SNAP condensates (Homo sapiens, UniProt P35637)"
category = "yes"

[[record]]
compound = "CC(=O)Oc1ccc2c(c1)Oc1cc(OC(C)=O)ccc1C21OC(=O)c2ccccc21 [Dye 9, Fluorescein diacetate]"
tested_target = "FUS-SNAP condensates (Homo sapiens, UniProt P35637)"
category = "yes"

[[record]]
compound = "N=C(N)c1ccc(-c2cc3ccc(C(=N)N)cc3[nH]2)cc1"
tested_target = "FUS-SNAP condensates (Homo sapiens, UniProt P35637)"
category = "no"

[[record]]
compound = "COC(=O)c1ccccc1-c1c2ccc(=N)cc-2oc2cc(N)ccc12.Cl"
tested_target = "FUS-SNAP condensates (Homo sapiens, UniProt P35637)"
category = "yes"

[[record]]
compound = "CCN(CC)c1ccc2c(-c3ccccc3C(=O)O)c3ccc(=[N+](CC)CC)cc-3oc2c1"
tested_target = "FUS-SNAP condensates (Homo sapiens, UniProt P35637)"
category = "no"


meta.source: patent US12174198B2
